The values you see were collected from patent US5808100A.

# Test name: Photochromic properties of polymer (2 mm thick) containing the chromene compound, xenon lamp irradiation 120 seconds
# Assay type: physicochemical
# Condition summary: polymer after developing color
Recorded metric: Maximum absorption wavelength λMax (developed color tone) (nm)

Fc1cc2ccccc2cc1C1(c2cccs2)C=Cc2c(ccc3ccccc23)O1 (centres unmarked)    460
C1=CC(c2ccco2)(c2cc3ccccc3o2)Oc2ccc3ccccc3c21 (centres unmarked)    492
COc1ccc2c3c(ccc2c1)OC(c1cccs1)(c1cccc2ccccc12)C=C3 (centres unmarked)    502
C1=CC(c2ccoc2)(c2ccco2)Oc2ccc3ccccc3c21 (centres unmarked)    466
Cn1cccc1C1(c2ccc3ccccc3c2)C=Cc2c(ccc3ccccc23)O1 (centres unmarked)    486

====

# Test name: Photochromic properties of polymer (2 mm thick) containing the chromene compound, xenon lamp irradiation 120 seconds
# Type: physicochemical
# Set-up: key: absorbance at λmax after 120 s irradiation minus before, ε(120)-ε(0)
# Condition summary: 120 seconds irradiation, 20° C.±1° C., at λmax
Recorded metric: Color density ε(120)-ε(0)

CC(C)(C)Oc1ccc2ccc3c(c2c1)C=CC(c1cccs1)(c1ccc2ccccc2c1Cl)O3 (stereo not drawn)    1.35
C1=CC(c2ccco2)(c2csc3ccccc23)Oc2ccc3ccccc3c21 (stereo not drawn)    1.05
CC(=O)Oc1ccc2c3c(ccc2c1)OC(c1ccc(C)s1)(c1cccc2ccccc12)C=C3 (stereo not drawn)    1.42
C1=CC(c2ccc3ccccc3c2)(c2nccs2)Oc2ccc3ccccc3c21 (stereo not drawn)    1.09

I = Cc1csc(C2(c3scc(C)c3C)C=Cc3c(ccc4ccccc34)O2)c1C [E, reference compound]
II = C1=CC(c2ccsc2)(c2cc3ccccc3o2)Oc2cc(N3CCCCC3)c3ccccc3c21 (stereo not drawn)
QUERY: Between item I and item II , which reported Color density ε(120)-ε(0) is smaller? In your reply, give the label of the chosen option.
RESULT: I
(I: 0.86, II: 1.33)

====

# Test name: Photochromic properties of polymer (2 mm thick) containing the chromene compound, xenon lamp irradiation 120 seconds
# Assay type: physicochemical
# Condition summary: after 120 seconds irradiation
Recorded metric: Color fading rate t1/2: time until absorbancy decreases to one-half of [ε(120)-ε(0)] (min)

Here's what some known entries look like.
C1=CC(c2ccsc2)(c2cc3ccccc3o2)Oc2cc(N3CCCCC3)c3ccccc3c21 (stereo not shown) [Compound 10]    1.37
COc1ccc2c3c(ccc2c1)OC(c1cccs1)(c1cccc2ccccc12)C=C3 (stereo not shown) [Compound 17]    1.4

I = Fc1occc1C1(c2ccc3ccccc3c2)C=Cc2c(ccc3ccccc23)O1 (stereo not shown) [Compound 32]
II = C1=CC(c2ccc3ccccc3c2)(c2nccs2)Oc2ccc3ccccc3c21 (stereo not shown) [Compound 16]
QUERY: Sorting by Color fading rate t1/2: time until absorbancy decreases to one-half of [ε(120)-ε(0)] in descending order, would I or II appear first? Refer to your chosen item by its label in the answer.
RESULT: I

====

# Test name: Photochromic properties of polymer (2 mm thick) containing the chromene compound, xenon lamp irradiation 120 seconds
# Assay type: physicochemical
# Condition summary: after 120 seconds irradiation
Recorded metric: Color fading rate t1/2: time until absorbancy decreases to one-half of [ε(120)-ε(0)] (min)

Worked examples follow.
Fc1c(C2(c3cccs3)C=Cc3c(ccc4ccccc34)O2)ccc2ccccc12 (stereo not drawn)    1.2
C1=CC(c2ccco2)(c2cccc3ccccc23)Oc2ccc3ccccc3c21 (stereo not drawn)    1.38
CC(C)(C)Oc1ccc2ccc3c(c2c1)C=CC(c1cccs1)(c1ccc2ccccc2c1Cl)O3 (stereo not drawn)    1.17

P = CCOc1c(C2(c3ccco3)C=Cc3c(ccc4cc(OC)c(C(C)=O)cc34)O2)ccc2ccccc12 (stereo not drawn)
Q = C1=CC(c2ccsc2)(c2ccco2)Oc2ccc3ccccc3c21 (stereo not drawn)
QUERY: Consider P and Q . Which of these has its Color fading rate t1/2: time until absorbancy decreases to one-half of [ε(120)-ε(0)] at a higher number? State the label of the item chosen.
RESULT: P

====

# Test name: Photochromic properties of polymer (2 mm thick) containing the chromene compound, xenon lamp irradiation 120 seconds
# Format: physicochemical
# Condition summary: polymer after developing color
Recorded metric: Maximum absorption wavelength λMax (developed color tone) (nm)

COc1ccc2c3c(ccc2c1)OC(c1ccc2ccccc2c1)(c1cnco1)C=C3 (centres unmarked) [Compound 11]    476
Fc1sccc1C1(c2ccc3ccccc3c2)C=Cc2c(ccc3ccccc23)O1 (centres unmarked) [Compound 7]    456
COc1ccc2c3c(ccc2c1)OC(c1ccccc1)(c1ccccc1)C=C3 [B, reference compound]    472
Fc1c(C2(c3ccsc3)C=Cc3c(ccc4ccccc34)O2)ccc2ccccc12 (centres unmarked) [Compound 30]    450
Fc1ccsc1C1(c2ccc3ccccc3c2)C=Cc2c(ccc3ccccc23)O1 (centres unmarked) [Compound 18]    456

====

# Test name: Photochromic properties of polymer (2 mm thick) containing the chromene compound, xenon lamp irradiation 120 seconds
# Type: physicochemical
# Condition summary: polymer after developing color
Recorded metric: Maximum absorption wavelength λMax (developed color tone) (nm)

C1=CC(c2ccc3ccccc3c2)(c2nccs2)Oc2ccc3ccccc3c21 (centres unmarked)    466
CCOc1c(C2(c3ccco3)C=Cc3c(ccc4cc(OC)c(C(C)=O)cc34)O2)ccc2ccccc12 (centres unmarked)    510
N#Cc1cc(Cl)c(C2(c3ccoc3)C=Cc3c(ccc4ccccc34)O2)s1 (centres unmarked)    458
COc1cc2c(c3ccccc13)C=CC(c1cc(Cl)c3ccccc3c1)(c1cc3ccccc3s1)O2 (centres unmarked)    440
C1=CC(c2ccccc2)(c2ccccc2)Oc2ccc3ccccc3c21 [A, reference compound]    436
C1=CC(c2ccsc2)(c2ccco2)Oc2ccc3ccccc3c21 (centres unmarked)    464
Cc1csc(C2(c3scc(C)c3C)C=Cc3c(ccc4ccccc34)O2)c1C [E, reference compound]    514
Fc1c(C2(c3ccco3)C=Cc3c(ccc4ccccc34)O2)ccc2ccccc12 (centres unmarked)    480

====

# Test name: Photochromic properties of polymer (2 mm thick) containing the chromene compound, xenon lamp irradiation 120 seconds
# Assay type: physicochemical
# Condition summary: polymer after developing color
# Protocol: 0.05 Parts of the chromene compound obtained in Example 1 was added to 70 parts of a tetraethylene glycol dimethacrylate, 15 parts of a triethylene glycol dimethacrylate, 10 parts of a glycidyl methacrylate and 5 parts of a 2-hydroethyl methacrylate, and was mixed to a sufficient degree. The mixture solution was poured into a mold constituted by a glass plate and a gasket made from an ethylene/vinyl acetate copolymer and then polymerized. […]
Recorded metric: Maximum absorption wavelength λMax (developed color tone) (nm)

CC(C)(C)Oc1ccc2ccc3c(c2c1)C=CC(c1cccs1)(c1ccc2ccccc2c1Cl)O3 (centres unmarked)    450
Fc1occc1C1(c2ccc3ccccc3c2)C=Cc2c(ccc3ccccc23)O1 (centres unmarked)    450
CC(=O)Oc1ccc2c3c(ccc2c1)OC(c1ccc(C)s1)(c1cccc2ccccc12)C=C3 (centres unmarked)    506
Fc1c(C2(c3cccs3)C=Cc3c(ccc4ccccc34)O2)ccc2ccccc12 (centres unmarked)    456
C1=CC(c2ccccc2)(c2cccs2)Oc2ccc3ccccc3c21 (centres unmarked) [D, reference compound]    466
C1=CC(c2ccc3ccccc3c2)(c2ccco2)Oc2ccc3ccccc3c21 (centres unmarked)    486
COc1ccc2c3c(ccc2c1)OC(c1cncs1)(c1cscc1C)C=C3 (centres unmarked)    490
C1=CC(c2ccsc2)(c2cc3ccccc3o2)Oc2cc(N3CCCCC3)c3ccccc3c21 (centres unmarked)    460

====

# Test name: Photochromic properties of polymer (2 mm thick) containing the chromene compound, xenon lamp irradiation 120 seconds
# Format: physicochemical
# Condition summary: polymer after developing color
# Procedure: 0.05 Parts of the chromene compound obtained in Example 1 was added to 70 parts of a tetraethylene glycol dimethacrylate, 15 parts of a triethylene glycol dimethacrylate, 10 parts of a glycidyl methacrylate and 5 parts of a 2-hydroethyl methacrylate, and was mixed to a sufficient degree. The mixture solution was poured into a mold constituted by a glass plate and a gasket made from an ethylene/vinyl acetate copolymer and then polymerized. […]
Recorded metric: Maximum absorption wavelength λMax (developed color tone) (nm)

C1=CC(c2ncco2)(c2csc3ccccc23)Oc2ccc3cc(Cc4ccccc4)ccc3c21 (stereo not shown) [Compound 13]    480
COc1ccc2ccc3c(c2c1)C=CC(c1ccco1)(c1coc2ccccc12)O3 (stereo not shown) [Compound 14]    484
C1=CC(c2ccco2)(c2csc3ccccc23)Oc2ccc3ccccc3c21 (stereo not shown) [Compound 26]    460
C1=CC(c2ccco2)(c2cccc3ccccc23)Oc2ccc3ccccc3c21 (stereo not shown) [Compound 3]    496

====

# Test name: Photochromic properties of polymer (2 mm thick) containing the chromene compound, xenon lamp irradiation 120 seconds
# Type: physicochemical
# Condition summary: not irradiated, at λmax
Recorded metric: ε(0): absorbancy of the polymer not irradiated (initial color)

P = Cc1csc(C2(c3scc(C)c3C)C=Cc3c(ccc4ccccc34)O2)c1C [E, reference compound]
Q = COc1cc2c(c3ccccc13)C=CC(c1cc(Cl)c3ccccc3c1)(c1cc3ccccc3s1)O2 (stereo not shown)
QUERY: For the pair P and Q , which member has the lower ε(0): absorbancy of the polymer not irradiated (initial color) number? Response format: the label of the selected entry.
RESULT: Q
(Q: 0.12, P: 0.26)

P = C1=CC(c2ccc3ccccc3c2)(c2nccs2)Oc2ccc3ccccc3c21 (stereo not shown)
Q = C1=CC(c2ccccc2)(c2cccs2)Oc2ccc3ccccc3c21 (stereo not shown) [D, reference compound]
R = C1=CC(c2ccsc2)(c2cc3ccccc3o2)Oc2cc(N3CCCCC3)c3ccccc3c21 (stereo not shown)
QUERY: Order these by ε(0): absorbancy of the polymer not irradiated (initial color), descending, and give the full ranking. Reply with the labels, ordered as the question asks.
RESULT: R, P, Q
(R: 0.10, P: 0.06, Q: 0.04)
